For each entry below, report its amount of remaining unaltered crystals, INITIAL value.
Assay: Storage stability test (40° C., 75% RH, open or closed, opaque containers, HPLC)
Details: 40° C./75% RH storage test; initial
Numbers only.

COc1c(N2C[C@H](CNC3CC3)[C@H](F)C2)c(F)cc2c(=O)c(C(=O)O)cn(CCF)c12.Cl.O [CRYSTALS B]; 99.59

Return reported amount of remaining unaltered crystals, INITIAL values for all items listed beneath this line.
1. COc1c(N2C[C@H](CNC3CC3)[C@H](F)C2)c(F)cc2c(=O)c(C(=O)O)cn(CCF)c12 [FREE CRYSTALS]
2. COc1c(N2C[C@H](CNC3CC3)[C@H](F)C2)c(F)cc2c(=O)c(C(=O)O)cn(CCF)c12.CS(=O)(=O)O [CRYSTALS OF METHANESULFONATE SALT]
3. COc1c(N2C[C@H](CNC3CC3)[C@H](F)C2)c(F)cc2c(=O)c(C(=O)O)cn(CCF)c12.Cl

Response line:
1: 95.18; 2: 95.18; 3: 99.52

Prompt line: Sample COc1c(N2C[C@H](CNC3CC3)[C@H](F)C2)c(F)cc2c(=O)c(C(=O)O)cn(CCF)c12.Cl.O [CRYSTALS C] — what was its amount of remaining unaltered crystals, INITIAL?
Response line: 99.75

###

Experiment: Storage stability test (40° C., 75% RH, open or closed, opaque containers, HPLC)
Details: 40° C./75% RH; 4 weeks; open condition
measured.property: amount of remaining unaltered crystals, 4 WEEKS OPEN CONDITION
Answers are plain numbers.

Some solved cases for reference:
COc1c(N2C[C@H](CNC3CC3)[C@H](F)C2)c(F)cc2c(=O)c(C(=O)O)cn(CCF)c12.CS(=O)(=O)O [CRYSTALS OF METHANESULFONATE SALT]; 95.89
COc1c(N2C[C@H](CNC3CC3)[C@H](F)C2)c(F)cc2c(=O)c(C(=O)O)cn(CCF)c12 [FREE CRYSTALS]; 95.35
COc1c(N2C[C@H](CNC3CC3)[C@H](F)C2)c(F)cc2c(=O)c(C(=O)O)cn(CCF)c12.Cl.O; 99.64

Now take the following compound into account.
Prompt line: Can you share its amount of remaining unaltered crystals, 4 WEEKS OPEN CONDITION? I mean this compound: COc1c(N2C[C@H](CNC3CC3)[C@H](F)C2)c(F)cc2c(=O)c(C(=O)O)cn(CCF)c12.Cl
Response line: 99.51

###

Kindly state amount of remaining unaltered crystals, 4 WEEKS CLOSED CONDITION for each of the entries shown.
Experiment: Storage stability test (40° C., 75% RH, open or closed, opaque containers, HPLC)
Conditions: 40° C./75% RH; 4 weeks; closed condition

Solved entries (count: 3):
COc1c(N2C[C@H](CNC3CC3)[C@H](F)C2)c(F)cc2c(=O)c(C(=O)O)cn(CCF)c12 [FREE CRYSTALS]; 95.00
COc1c(N2C[C@H](CNC3CC3)[C@H](F)C2)c(F)cc2c(=O)c(C(=O)O)cn(CCF)c12.Cl.O; 99.65
COc1c(N2C[C@H](CNC3CC3)[C@H](F)C2)c(F)cc2c(=O)c(C(=O)O)cn(CCF)c12.Cl; 99.52

Alright, here's another compound for you.
Prompt line: Using the record for COc1c(N2C[C@H](CNC3CC3)[C@H](F)C2)c(F)cc2c(=O)c(C(=O)O)cn(CCF)c12.CS(=O)(=O)O [CRYSTALS OF METHANESULFONATE SALT] , report its amount of remaining unaltered crystals, 4 WEEKS CLOSED CONDITION.
Response line: 96.09
